# System: UACC-257 melanoma
# Experiment: NCI tumour cell line growth inhibition, 48 h
Readout: TGI

[[record]]
molecule = "NCCCn1c2c(c3ccc([N+](=O)[O-])cc3c1=O)C(=O)c1ccccc1-2"
result = "> 16.6 µM"

[[record]]
molecule = "CC1(Br)Cc2ccccc2C1=O (stereo unspecified)"
result = "29.2 µM"


Now for a further molecule.
q: Requested read-out: TGI. Entry: Cc1ccc(S(=O)OCc2c(C)c(C)c(COS(=O)c3ccc(C)cc3)c(C)c2C)cc1 (stereo unspecified)
a: > 100 µM

* * *

# Tested on: MCF7 breast
# Experiment: NCI tumour cell line growth inhibition, 48 h
Readout: TGI

A selection of reference data follows.
[[record]]
compound = "Cc1cc2cc3c(=O)[nH]c(=O)[nH]c3nc2cc1C"
readout = "TGI"
result = "> 100 µM"

[[record]]
compound = "C=C1CC/C=C(\\C)CCC[C@H](C)[C@@H](O)[C@@H]2OC(=O)C(=C)[C@@H]2C[C@H]1O"
readout = "TGI"
result = "> 42.7 µM"

[[record]]
compound = "CN(C)CCC(=O)C(=Cc1ccc(O)cc1)C(=O)CCN(C)C"
readout = "TGI"
result = "> 100 µM"

[[record]]
compound = "COC12C(COC(N)=O)C3=C(C(=O)C(C)=C(N)C3=O)N1CC1C2N1C (configuration not stated)"
readout = "TGI"
result = "22.3 µM"

[[record]]
compound = "Cc1ccc(Nc2oc(-c3ccccc3)nc2[P+](c2ccccc2)(c2ccccc2)c2ccccc2)cc1"
readout = "TGI"
result = "1.98 µM"

[[record]]
compound = "CC(C)(C)OC/C=C(/CO)[C@@H]1C=C[C@H](O)C1"
readout = "TGI"
result = "> 100 µM"


q: Requested read-out: TGI. Entry: Cn1c2c(c3ccccc31)CCN1C(=O)CN(C(=O)C3CCCCC3)CC21 (configuration not stated)
a: > 100 µM

q: Requested read-out: TGI. Entry: "COc1cccc2nc3c(C(=O)NCCN(C)C)cccc3cc12"
a: 8 µM

q: Requested read-out: TGI. Entry: "Cc1cc(N(CCCNc2ccnc3cc(Cl)ccc23)Cc2ccc3c(c2)OCO3)nc(N2CCOCC2)n1"
a: 92 µM

q: Requested read-out: TGI. Entry: CC(C(=O)O)c1cccc(Oc2ccccc2)c1 (configuration not stated)
a: > 100 µM

q: Requested read-out: TGI. Entry: O=C1NC(N/N=C\C(O)C(O)C(O)C(O)CO)=N/C1=C/c1ccc(Cl)cc1 (configuration not stated)
a: > 100 µM

q: Requested read-out: TGI. Entry: CC1CN=C(N(C(=O)Nc2ccccc2)c2ccc(Cl)c(Cl)c2)S1 (configuration not stated)
a: > 100 µM

q: Requested read-out: TGI. Entry: "C=CCN(C(=O)CNC(=O)C(F)(F)F)c1cc(OCc2ccccc2)c2c(c1)c(C)cn2S(=O)(=O)c1ccccc1"
a: > 100 µM

q: Requested read-out: TGI. Entry: "O=c1nc(N2CCNCC2)oc2cc(Cl)oc(=O)c12"
a: 17.8 µM

q: Requested read-out: TGI. Entry: "Cn1c(=O)c(Oc2ccc(F)cc2)cc2cnc(NC3CCOCC3)nc21"
a: > 25 µM

* * *

Below, each of the compounds is paired with its reported log10 of TGI value.
# Test system: NCI-H522 lung
# Experiment: NCI tumour cell line growth inhibition, 48 h
Recorded TGI (log10, µM)

A selection of reference data follows.
[[record]]
smiles_structure = "O=C1CCC/C=C\\C[C@H]2C=CC(=O)/C2=C/C[C@H](C/C=C\\CC(F)(F)F)O1"
experimental_target = "NCI-H522 lung"
numeric_readout = -0.27

[[record]]
smiles_structure = "CSc1ccccc1C#C/C=C\\C#Cc1ccccc1N"
experimental_target = "NCI-H522 lung"
numeric_readout = 1.51

[[record]]
smiles_structure = "O=c1oc2c/c(=C\\c3ccc([N+](=O)[O-])cc3)c(=O)c3cccc1c3-2"
experimental_target = "NCI-H522 lung"
numeric_readout = 1.96

[[record]]
smiles_structure = "Cc1cc2c(cc1C(=O)c1ccc(N)cc1)OCO2"
experimental_target = "NCI-H522 lung"
numeric_readout = 1.74

[[record]]
smiles_structure = "CN1CC[C@@H](c2c(O)cc(O)c3c(=O)cc(-c4ccc(C(F)(F)F)cc4Cl)oc23)[C@@H]1CO"
experimental_target = "NCI-H522 lung"
numeric_readout = 1.57

[[record]]
smiles_structure = "Cc1cc(C(F)(F)F)cc(-n2nc(NS(=O)(=O)c3cc(C)c(Cl)cc3S)nc2N)n1"
experimental_target = "NCI-H522 lung"
numeric_readout = 1.96


q: Requested read-out: log10 of TGI. Entry: "CN(C)CCC(=O)C(=Cc1ccc(O)cc1)C(=O)CCN(C)C"
a: 1.59

q: Requested read-out: log10 of TGI. Entry: "O=[N+]([O-])c1ccc(CI)cc1"
a: 0.48

q: Requested read-out: log10 of TGI. Entry: "Cn1c(Nc2ccc(C(F)(F)F)cc2)nc2cc(Oc3ccnc(-c4ncc(C(F)(F)F)[nH]4)c3)ccc21"
a: 1.04

q: Requested read-out: log10 of TGI. Entry: "Cn1cnnc1Sc1c([N+](=O)[O-])ncn1C"
a: 1.41

q: Requested read-out: log10 of TGI. Entry: "O=C(NNC(=O)c1ccccc1O)c1cccc(Br)c1"
a: 1.92
